- Tested Target: human GPR119 (Homo sapiens, UniProt Q8TDV5)
- Construct: expressed in transfected cells; host or cells: Flp-In-CHO cells (Invitrogen, Cat. #R758-07), stably transfected with pcDNA5/FRT-human GPR119 plus pOG44
- Sequence (Q8TDV5 whole entry): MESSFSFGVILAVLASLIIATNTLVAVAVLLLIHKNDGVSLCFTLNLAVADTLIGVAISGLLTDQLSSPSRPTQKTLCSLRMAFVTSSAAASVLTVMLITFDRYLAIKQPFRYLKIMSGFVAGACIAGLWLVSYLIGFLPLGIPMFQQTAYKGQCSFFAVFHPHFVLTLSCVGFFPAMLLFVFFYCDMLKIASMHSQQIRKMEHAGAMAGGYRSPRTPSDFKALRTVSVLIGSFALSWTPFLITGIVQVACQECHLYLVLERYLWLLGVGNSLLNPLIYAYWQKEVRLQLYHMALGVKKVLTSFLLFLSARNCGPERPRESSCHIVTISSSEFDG
- Protocol Text: Cyclic AMP assay in stable cell line (HTRF, Flp-In-CHO-hGPR119 cells)
- Format: cell-based
- Measurement Parameters: increase in intracellular cAMP, 30 minutes at 37° C., 1 mM IBMX
EC50 values by entry
Quantity Name: EC50 (nM)

Structure Smiles	Quantity Name	Value
CCc1cnc(N2CCC(COc3c(F)cc(-c4cnn(C)c4)cc3F)CC2)nc1	EC50	258
CCOC(=O)CCNC(=O)c1ncc(-c2cc(F)c(OCC3CCN(C(=O)OC4(C)CC4)CC3)c(F)c2)cn1	EC50	10
CCN(CCO)C(=O)c1ncc(-c2cc(F)c(OCC3CCN(C(=O)OC4(C)CC4)CC3)c(F)c2)cn1	EC50	19
CC1(OC(=O)N2CCC(COc3c(F)cc(-c4cnc(C(=O)NCCCO)nc4)cc3F)CC2)CC1	EC50	45
